Reference for the values: patent EP0692191A1

Assay: Acute toxicity in male Albino-Swiss mouse, intraperitoneal (Example 3)
Format: in vivo, Albino-Swiss Maus
Conditions: mouse, in vivo, ip, male Albino-Swiss mouse, intraperitoneal, 24 h, estimated from regression curve; read-out: DL50

{"COMPOUND": "O=C(/C=C/c1ccccc1)c1ccccc1 [Verbindung 8, trans-1,3-diphenyl-2-propen-1-on]", "LD50 at 24 h (mg/kg)": 1490}

----------
Test: Brine shrimp assay (Example 4)
Settings: in vivo, Artemia salina, read-out: CL50

{"COMPOUND": "O=C(/C=C/c1ccccc1)c1ccccc1 [Verbindung 8, trans-1,3-diphenyl-2-propen-1-on]", "LC50 at 24 h (µM)": 24.7}

----------
Conditions: tomato, in vivo, TE: Rate der Verlängerung
PARAMETER: activity at 168 h, 500 µM (%)

{"MOLECULE": "O=C(/C=C/c1ccccc1)c1ccccc1 [Verbindung 8, trans-1,3-diphenyl-2-propen-1-on]", "PARAMETER": "activity at 168 h, 500 µM", "REPORTED VALUE": 89.2}

----------
Details: tomato, in vivo, TG: Rate der Keimung

{"COMPOUND": "O=C(/C=C/c1ccccc1)c1ccccc1 [Verbindung 8, trans-1,3-diphenyl-2-propen-1-on]", "activity at 168 h, 500 µM / %": 100}

----------
Settings: tomato, in vivo, TG: Rate der Keimung
PARAMETER: activity at 168 h, 50 µM (%)

{"MOLECULE": "O=C(/C=C/c1ccccc1)c1ccccc1 [Verbindung 8, trans-1,3-diphenyl-2-propen-1-on]", "PARAMETER": "activity at 168 h, 50 µM", "ENDPOINT UNIT": "%", "REPORTED VALUE": 103}

----------
Conditions: tomato, in vivo, TE: Rate der Verlängerung

{"COMPOUND": "O=C(/C=C/c1ccccc1)c1ccccc1 [Verbindung 8, trans-1,3-diphenyl-2-propen-1-on]", "ENDPOINT UNIT": "%", "activity at 168 h, 50 µM": 105}

----------
Tested on: Globodera rostochienensis und Globodera pallida
Assay: Nematostatic effect: inhibition of hatching from cysts (Example 2)
Assay type: in vivo
Conditions: Globodera pallida, 360 h; 15 days exposure, 10 mmol ZnSO4 as hatching inducer; hatching reduced to half of control; read-out: Bildung von Einschlußkörpern hemmende Dosis 50 (DIE50)
PARAMETER: IC50 (µM)

{"COMPOUND": "O=C(/C=C/c1ccccc1)c1ccccc1 [Verbindung 8, trans-1,3-diphenyl-2-propen-1-on]", "PARAMETER": "IC50", "REPORTED VALUE": 7}
